Give measured melting point for each item. Keep answers brief.

In the examples that follow, each entry is paired with its recorded melting point.
Compound: Cc1cc(NS(=O)(=O)c2ccccc2)cnc1CCCC#N
melting point: 119 to 120 °C
//
Compound: COc1ccc2c(Br)c(C)sc2c1
melting point: 80 to 81 °C
//
Compound: Cc1c(-c2cccc(C(F)(F)F)c2)oc2c(-c3ccc(F)cc3)c(-c3ccc(S(C)(=O)=O)cc3)nn12
melting point: 194 to 195 °C
//
Compound: CN(C)CCN(C)c1ccc(Nc2cc(-c3cc(F)cc(N4CCc5c(sc6c5CCCC6)C4=O)c3CO)cn(C)c2=O)nc1
melting point: 122 to 123 °C
//
Compound: c1cnc2c(c1)NCc1cccn1C2
melting point: 171 to 172 °C
//
Compound: CC(C)c1ccc(-c2nnc(-c3cccc(C(=O)O)c3)o2)cc1
melting point: 202 to 204 °C
//
Compound: COc1cccc(C(=C/C=C/C(=O)O)c2cccc(OC)c2)c1
melting point: 179 to 180 °C
//
Compound: CCCN1NC(c2ccc(C)cc2)C2=C1C(=Cc1ccc(C)cc1)CSC2 (stereo not given)
melting point: 140 to 143 °C
//
Compound: CC(C)CC(=Cc1ccccc1)C(=O)O
melting point: 66 to 67.5 °C

Attention now turns to another entry.
Q: Specify reported melting point for the compound shown: `Cc1nc2c(s1)-c1nc(NC(=O)c3ccccc3)ncc1CC2`
A: 229 to 231 °C

###

Give measured melting point for each item. Keep answers brief.

In the examples that follow, each entry is paired with its recorded melting point.
Entry smiles: CCCn1c(=O)c2[nH]c(CCCc3ccccc3)nc2n(CCC)c1=O
melting point: 137 to 138 °C

Entry smiles: Cn1c(C(F)(F)F)ccc(-c2c(F)cc(Cl)c3oc(C(=O)O)cc23)c1=O
melting point: 233 to 235 °C

Entry smiles: CC(C)N1C(=O)c2ccccc2N(C(=O)C(C)(C)C)S1(=O)=O
melting point: 97.5 to 99.5 °C

Entry smiles: CCNC(=O)CSc1nc(Cl)cc(Nc2cccc(C)c2C)n1
melting point: 191 to 192 °C

Attention now turns to another entry.
Q: Specify reported melting point for the compound shown: `COc1ccc(Oc2cccc3ncnc(NC(=O)Nc4ccccc4)c23)cc1`
A: 231 to 232 °C

###

Measured endpoint: melting point

In the examples that follow, each entry is paired with its recorded melting point.
Molecule: Cc1cc(-n2ccc(OCc3ccc(OC(F)F)cc3)cc2=O)sc1C(=O)NCc1ccccc1
melting point: 178 to 180 °C

Molecule: NC(=S)NCCN1CCC(Nc2nc3ccccc3n2Cc2ccc(F)cc2)CC1
melting point: 186 °C

Molecule: C=CCOC(=O)[C@@H]1CC[C@@H]2CN1C(=O)N2OCc1ccccc1
melting point: 60 to 62 °C

Dear colleague, could you please provide melting point for the molecules listed below?
1. Cc1nc2c3c(c(C(=O)N4CC(F)C4)cc2n1C)CCC1(Cc2ccccc2C1)N3
2. CCOC(=O)C(=CNc1coc2ccccc2c1=O)C(=O)OCC
3. CC(=O)c1ccc(NC(=O)c2ccc(C3OCC(SC(C)C(O)(Cn4cncn4)c4ccc(F)cc4F)CO3)cc2)cc1 (centres undefined)
4. CCCCCCCC(CC(=O)OO)CC(=O)OO

A:
1. 259 to 260 °C
2. 155 to 157 °C
3. 171 °C
4. 19 to 22 °C

Dear colleague, could you please provide melting point for the molecules listed below?
1. Cc1c(Cl)cc(C(=O)O)c(Cl)c1[N+](=O)[O-]
2. CCC(=O)c1ccc(C(CC(=O)Nc2cc(C(N)=O)ccc2C(C)(C)C)CC(C)C)c(OC)c1 (centres undefined)

A:
210 to 218 °C
186 to 187 °C

###

Measured endpoint: melting point

In the examples that follow, each entry is paired with its recorded melting point.
Compound: CN(C)CCCOc1ccc(N(C(=O)c2ccc(Cl)cc2)c2ccccc2)cc1
Assay result: 81.5 to 85.5 °C
//
Compound: CN(C(=O)C(F)(F)F)C(C(=O)O)c1ccccc1 (stereo not given)
Assay result: 124 to 126 °C
//
Compound: O=C1CCC2(CCCc3ccccc32)CC1
Assay result: 109 to 111 °C
//
Compound: CCOC(=O)c1cc(Cl)c(OCc2ccccc2)c(Cl)c1
Assay result: 66 to 68 °C

Q: Specify reported melting point for the compound shown: `CCOc1cc(Oc2ccc(C(F)(F)F)cn2)ccc1CCCOc1nn(CC)cc1CC(=O)O`
A: 82 to 83 °C

###

Give measured melting point for each item. Keep answers brief.

Molecule: CN1C2CCC1CN(c1ccc3cc([N+](=O)[O-])ccc3n1)C2
melting point: 152 to 154 °C
--
Molecule: CCC1=Nc2ccc(OCCN3C(=O)c4ccccc4C3=O)cc2C(=O)C1
melting point: 168 to 171 °C
--
Molecule: C=CC(=O)OCCOc1ccc(-c2cccc(F)c2F)cc1
melting point: 47.4 to 50.1 °C
--
Molecule: CCCCCCCCCCCCc1cc2cc(C(=O)OCCCC)ccc2[nH]1
melting point: 74 to 76 °C
--
Molecule: N#CCCn1[nH]c(C#N)c(N=Nc2ccc(S(=O)(=O)Cl)cc2)c1=O
melting point: 178 to 180 °C

Dear colleague, could you please provide melting point for the molecules listed below?
1. Cc1ccc(C2c3c(C)c(N4CCN(c5ccc([N+](=O)[O-])cc5)CC4)c(C)c(C)c3OC2(C)C)cc1 (stereo unspecified)
2. O=C(O)Cc1ccc(NC(=O)C=C2CC(C(=O)O)Nc3cc(Cl)cc(Cl)c32)cc1 (racemic)
3. CNN1CSC(=Cc2cc(C(C)(C)C)c(O)c(C(C)(C)C)c2)C1=O
4. CCOC(=O)NC(=S)NCC(C)C

A:
["203 to 205 °C", "> 220 °C", "151 to 154 °C", "50 to 52 °C"]

Dear colleague, could you please provide melting point for the molecules listed below?
1. O=C(NCCO)C(=O)NCCO
2. CCOC(=O)c1c(OCC)nsc1NC(=O)NC

A:
166 to 169 °C
195 to 196 °C

###

Measured endpoint: melting point (°C)
Numbers only, in °C.

Dear colleague, could you please provide melting point for the compounds listed below?
1. BrC/C(=C(\CBr)c1ccccc1)c1ccccc1
2. COC(=O)c1cccc(-n2cccc2)n1

A:
98
61

###

Give measured melting point for each item. Keep answers brief.

In the examples that follow, each entry is paired with its recorded melting point.
Compound: CC(=O)OC1CSC(Oc2ccc(C(=O)NCc3ccccc3)nc2)C(OC(C)=O)C1OC(C)=O (stereo not given)
Assay result: 177 to 178 °C

Compound: CC(C(=O)N(C)C)n1cc(Cl)c(-c2ccccc2Cl)n1 (stereo not given)
Assay result: 108 to 111 °C

Compound: CCC1=C(C(=O)OC)C(c2cccc([N+](=O)[O-])c2)c2c(nc(N3CCOCC3)nc2N2CCOCC2)N1 (stereo not given)
Assay result: 225 °C

Compound: CC(=O)O[C@@H]1OCC[C@@H]1NC(=O)[C@H](CC(C)C)NC(=O)Nc1cccc2ccccc12
Assay result: 196 to 198 °C

Compound: CC(C)(C)OC(=O)N1CCC(c2nc3cc(-c4ccc(-c5nnn[nH]5)c(F)c4)ccc3o2)CC1
Assay result: 163 to 167 °C

Compound: O=c1c2cc(Cl)ccc2nc(C(S)c2ncnc3[nH]cnc23)n1-c1ccccc1Cl (stereo not given)
Assay result: 237 to 238 °C

Compound: CCCn1c(=O)c2nc(C(=O)O)cn2c2ccccc21
Assay result: 232 to 234 °C

Compound: CCOC(=O)CNC(=O)C1=C(C(=O)Nc2ccc(Cl)cc2F)CCCC1
Assay result: 170 °C

Dear colleague, could you please provide melting point for the compounds listed below?
1. Nc1ccc(C(c2ccccc2)(c2ccc(N)cc2)C(F)(F)F)cc1
2. CC(=O)OCCOc1cccc(C(N)=O)c1
3. CCNC(=O)c1ccc(-c2ccc(-c3ccccc3)c(-c3ccc4c(c3)C(C)(C)CCC4(C)C)c2)cc1
4. CCCSc1cn(C)cc(-c2cccc(C(F)(F)F)c2)c1=O
5. O=C1CCC2=C(CCc3cccc(Cl)c32)N1
6. O=C1c2ccc(N3CCCCC3)c3cc(Br)cc(c23)C(=O)N1O

A:
["217 to 218 °C", "121 to 122 °C", "183 °C", "101 to 102 °C", "184 °C", "134 to 136 °C"]

Dear colleague, could you please provide melting point for the compounds listed below?
1. COc1ccc(C2(CC3CO3)S(=O)(=O)CCCS2(=O)=O)cc1OC (stereo not given)
2. O=C(c1ccc(-n2cccn2)cc1)N1Cc2cccn2Cc2ccccc21
3. COCCc1nc2c(N)nc3ccccc3c2n1CCOCCN(C)S(=O)(=O)C(C)C
4. CCCCCC(CC(=O)Nc1cc(C(N)=O)ccc1C(C)(C)C)c1ccc(OC)cc1OC (single isomer, unassigned; (+))
5. CCCCNc1cc(CN(Cc2ccccc2)C(C)=O)cc(S(N)(=O)=O)c1Oc1ccccc1
6. OC(CCl)(Cc1ccc(Cl)cc1)c1ccc2c(c1)Cc1cc(Cl)ccc1-2 (stereo not given)

A:
175 to 176 °C
179 to 181 °C
130 °C
152 °C
75 to 77 °C
108 °C

Dear colleague, could you please provide melting point for the compounds listed below?
1. CC(C)(C)OC(=O)N1CCC(C(=O)c2cccs2)CC1
2. CCCC(=O)NC1CCc2ccccc2C1 (stereo not given)
3. Cc1sc(-c2cc([N+](=O)[O-])cc([N+](=O)[O-])c2)nc1O
4. CC(C)(C)OC(=O)Cn1ccn(C2CCc3ccccc3C2)c1=S (stereo not given)
5. CCOc1cc2cc3c(c(-c4ccncc4)c2cc1OCC)C(=O)NC3=O
6. Nc1ccc(OC(F)(F)F)c(-c2nc3ccccc3o2)c1
7. COCC1OC(=Nc2nccs2)c2c1nc1cc(Cl)ccc1c2O (stereo not given)

A:
["154 to 156 °C", "78 to 81 °C", "247 to 248 °C", "167 to 169 °C", "210 to 213 °C", "133 to 135 °C", "> 270 °C"]

Numbers sourced from a melting point compilation (Tetko et al.; mined from patent text by program, amines drawn as free bases though some values may be those of a salt).
